Below, each entry is listed alongside its reported protein stability index.
B1: FLOT1 (parent)
chain: QMAKKAEAFQLYQEAAQLDMLLEK

# Variants of: B1
# Assay Protocol: protein stability index of a GFP-peptide fusion (GPS, HEK-293T) (PSI 1-6); higher = more stable;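 also: lentivirally expressed fusions sorted by FACS into six bins by GFP to DsRed ratio, PSI derived from sequencing read proportions per bin multiplied by bin number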
# Stated Conditions: c terminus: a fixed tail appended
The answer should be a number; do not append a unit.

Examples with their reported protein stability index follow.
QMAKKAEAFDLYQEAAQLDMLLEK : 2.01
QMAKKAEAFQLSQEAAQLDMLLEK : 4.55
QKAKKAEAFQLYQEAAQLDMLLEK : 2.4

Data request: What does the data say about its protein stability index? Entry: QMAKKAEAFQLYQEAAQLDMLLYK
Data returned: 1.81

Data request: Try QMAKKAEAFQLYQEAAQSDMLLEK next.
Data returned: 2.51

Data request: Please give the result for HMAKKAEAFQLYQEAAQLDMLLEK too.
Data returned: 2.21
